FYI, the data here is from the supplement of paper PMC6555819.

Tested on: PPARg:RXRa 90nM:30nM, anti-RXR (NR concentration 90 nM, RXRa partner concentration 30 nM)
Assay Explanation: PBM binding z-score (relative to random genomic background probes); higher = stronger binding; sequences stand for … in GC…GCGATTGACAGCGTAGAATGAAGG
Recorded Metric: PBM binding z-score
I only need the number, thanks.

Solved cases below.
{"Sequence Chain": "CTCGAAAGGTCGTGCTCAGGGGAGTATACCAAAC", "PBM binding z-score": 2.16}
{"Sequence Chain": "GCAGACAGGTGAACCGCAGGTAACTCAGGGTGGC", "PBM binding z-score": 0.0575}
{"Sequence Chain": "GCGACTGAGGCAAAGCAGGTTACCATAAGGTTGG", "PBM binding z-score": -0.693}
{"Sequence Chain": "TCTTGTAGATCAACAGGAGGTCAAGAAAGATCGA", "PBM binding z-score": 2.35}

As a next step, examine the sequence that follows.
Prompt line: Data request, read-out PBM binding z-score, for `CCTAGCAGGCCAGGGTCGCTCAAGCATTTCGCTT`
Response line: -0.71

---

Tested on: PPARg:RXRa 90nM:30nM, anti-RXR (NR concentration 90 nM, RXRa partner concentration 30 nM)
Assay Explanation: PBM binding z-score (relative to random genomic background probes); higher = stronger binding; sequences stand for … in GC…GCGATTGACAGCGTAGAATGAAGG
Decide by PBM binding z-score: equal to or exceeding 0.8 means 1, less means -1.

{"Sequence Chain": "GTAGACAGGTGAAACGCAGGTAACTCAGGGTGGC", "Group Label": -1}
{"Sequence Chain": "TGAATGAGGTTATTAGATCAGGGAACGTTGCAAA", "Group Label": 1}
{"Sequence Chain": "CCTAGCAGGCCAGCGTCACTCAAGCATTTCGCTT", "Group Label": -1}

Prompt line: Is PBM binding z-score for `TCTTGTAGATCAAGCAGGTTGAGAAAGCCTGAGT` at or above 0.8?
Response line: 1

Prompt line: Is PBM binding z-score for `GCATATAGGTAATACAAGGTGAATGTCCGATTGT` at or above 0.8?
Response line: -1

Prompt line: Is PBM binding z-score for `CATAAAGGGTCAGCTAGGCCAGAGTAGGGACGGC` at or above 0.8?
Response line: 1

Prompt line: Is PBM binding z-score for `AGAATGAGGTTATACATAGATCAGGGAAGAAAGT` at or above 0.8?
Response line: 1

Prompt line: Is PBM binding z-score for `CCTACTGGGCCATGGTCATTGATCAGTCAAAGCA` at or above 0.8?
Response line: 1

Prompt line: Is PBM binding z-score for `GCATATAGGTAATACAAGGCGAAAGTCCGATTGT` at or above 0.8?
Response line: -1

Prompt line: Is PBM binding z-score for `GCGACTGGGGCCAAGCAGGTTACCATAAGGTTGG` at or above 0.8?
Response line: -1

Prompt line: Is PBM binding z-score for `CCAGACAGGTAAGAAGGTAACTCAGCCTCGATTA` at or above 0.8?
Response line: -1

Prompt line: Is PBM binding z-score for `CCTGCTAGGTCATGGTCATCTAATCTACAGTATG` at or above 0.8?
Response line: 1
